# Tested on: chloroquine-resistant K1 strain of P. falciparum
# Assay remarks: In vitro antimalarial semiautomated microdilution assay ([3H]-hypoxanthine incorporation), K1 strain
# Type: cell-based, Plasmodium falciparum
# Condition notes: Plasmodium falciparum, K1, 72 h, read-out: IC50 (ng/ml) K1, chloroquine-resistant K1 strain, 72 h incubation
# strict inequality: IC50 < 10 ng/mL yields satisfied, everything else yields not satisfied

Sample answers from the record:
>  <Molecule>
c1ccc(C[C@H]2CC[C@]3(CC2)OOC2(O3)C3CC4CC(C3)CC2C4)cc1 (some centres unmarked)

>  <Discrete label>
satisfied

$$$$
>  <Molecule>
O=C(O)C1(c2ccccc2)CCC2(CC1)OOC1(O2)C2CC3CC(C2)CC1C3 (centres unmarked)

>  <Discrete label>
not satisfied

$$$$
>  <Molecule>
O=C(O)CNC[C@H]1CC[C@]2(CC1)OO[C@]1(O2)C2CC3CC(C2)CC1C3

>  <Discrete label>
not satisfied

$$$$

Ask: Dear reviewer, please state whether O=C(C[C@H]1CC[C@]2(CC1)OO[C@]1(O2)C2CC3CC(C2)CC1C3)Nc1nnn[nH]1 has IC50 strictly beneath 10 ng/mL.
Result: not satisfied

Ask: Dear reviewer, please state whether O=C1c2ccccc2C(=O)N1CC1(c2ccccc2)CCC2(CC1)OOC1(O2)C2CC3CC(C2)CC1C3 (centres unmarked) has IC50 strictly beneath 10 ng/mL.
Result: satisfied

Ask: Dear reviewer, please state whether O=C(OC[C@H]1CC[C@]2(CC1)OOC1(O2)C2CC3CC(C2)CC1C3)n1ccnc1 (some centres unmarked) has IC50 strictly beneath 10 ng/mL.
Result: satisfied

Ask: Dear reviewer, please state whether O=C(C[C@H]1CC[C@]2(CC1)OOC1(O2)C2CC3CC(C2)CC1C3)NO (some centres unmarked) has IC50 strictly beneath 10 ng/mL.
Result: satisfied

* * *

# Test system: ANKA strain of Plasmodium berghei
# Assay remarks: Single dose ED50/ED90/ED99 determination in infected mice
# Type: in vivo
# Condition notes: single dose po in SSV on day 1 post-infection; parasitemia day 3; nonlinear fitting
Could you please report measured ED99 for the items listed next?
Answers are plain numbers, in mg/kg.

The cases that follow already have their ED99 on record.
>  <Compound>
Cc1ccc(S(=O)(=O)O)cc1.O=C(C[C@H]1CC[C@]2(CC1)OO[C@]1(O2)C2CC3CC(C2)CC1C3)N1CCNCC1

>  <Metric name>
ED99

>  <Numeric result>
3.9

$$$$
>  <Compound>
c1ncn(C[C@H]2CC[C@]3(CC2)OOC2(O3)C3CC4CC(C3)CC2C4)n1 (stereo partly drawn) [OZ235]

>  <Metric name>
ED99

>  <Numeric result>
11

$$$$

Shifting focus to the compound that follows.
Ask: Item under review: C[C@H]1[C@@H](OCc2ccc(C(=O)O)cc2)O[C@@H]2O[C@@]3(C)CC[C@H]4[C@H](C)CC[C@@H]1[C@@]24OO3 [Artelinate, artelinate, reference compound] . Reported ED99?
Result: 18

* * *

# Tested on: ANKA strain of P. berghei
# Assay remarks: Single dose STI in vivo screen in infected mice
# Set-up: species or system Plasmodium berghei
# Condition notes: single 10 mg/kg sc in 3% ethanol and 7% Tween 80; untreated 6-7 days
Metric name: Survival (days) 10 mg/kg sc
The answer should read as a number with its unit following.

The cases that follow already have their Survival (days) 10 mg/kg sc on record.
>  <Compound>
O=C(O)c1ccc([C@H]2CC[C@]3(CC2)OOC2(O3)C3CC4CC(C3)CC2C4)cc1 (stereo partly drawn)

>  <Metric name>
Survival (days) 10 mg/kg sc

>  <Result>
5.7 days

$$$$
>  <Compound>
NC(=O)CN(CC(N)=O)C[C@H]1CC[C@]2(CC1)OOC1(O2)C2CC3CC(C2)CC1C3 (stereo partly drawn)

>  <Metric name>
Survival (days) 10 mg/kg sc

>  <Result>
7.7 days

$$$$
>  <Compound>
OC1(c2nccs2)CCC2(CC1)OOC1(O2)C2CC3CC(C2)CC1C3 (stereo not drawn)

>  <Metric name>
Survival (days) 10 mg/kg sc

>  <Result>
9.0 days

$$$$

Would you be so kind as to report Survival (days) 10 mg/kg sc for each listed record?
1. O=C(c1ccncc1)N1CCC2(CC1)OOC1(O2)C2CC3CC(C2)CC1C3 (stereo not drawn)
2. Cc1ccc(S(=O)(=O)O)cc1.NC[C@H]1CC[C@]2(CC1)OOC1(O2)C2CC3CC(C2)CC1C3 (stereo partly drawn)
3. COCC(=O)N[C@H]1CC[C@]2(CC1)OOC1(O2)C2CC3CC(C2)CC1C3 (stereo partly drawn)
4. CCOC(=O)c1cccc([C@H]2CC[C@]3(CC2)OOC2(O3)C3CC4CC(C3)CC2C4)c1 (stereo partly drawn)
5. CCCCS(=O)(=O)N1CCC2(CC1)OOC1(O2)C2CC3CC(C2)CC1C3 (stereo not drawn)
6. c1ccc2c(c1)OCCC21OOC2(O1)C1CC3CC(C1)CC2C3 (stereo not drawn)
7. c1ccc(CN2CCC3(CC2)OOC2(O3)C3CC4CC(C3)CC2C4)cc1 (stereo not drawn)

Result:
7.0 days
11.3 days
8.0 days
5.7 days
10.0 days
15.3 days
10.0 days

* * *

# System: ANKA strain of P. berghei
# Assay remarks: Single dose STI in vivo screen in infected mice
# Design: species or system Plasmodium berghei
# Condition notes: single 10 mg/kg sc in 3% ethanol and 7% Tween 80; untreated 6-7 days
Counter-ions that a name gives are not always drawn.
Survival (days) 10 mg/kg sc vs 8 days: at or above is 1 (yes), below is 0 (no).

Sample answers from the record:
>  <Compound>
CC(C)(C)CC(=O)N1CCC2(CC1)OOC1(O2)C2CC3CC(C2)CC1C3 (centres unmarked)

>  <Discrete label>
1 (yes)

$$$$
>  <Compound>
CCCCCCCCS(=O)(=O)N1CCC2(CC1)OOC1(O2)C2CC3CC(C2)CC1C3 (centres unmarked)

>  <Discrete label>
0 (no)

$$$$
>  <Compound>
O=C(Cn1ccnc1)N1CCC2(CC1)OOC1(O2)C2CC3CC(C2)CC1C3 (centres unmarked)

>  <Discrete label>
0 (no)

$$$$
>  <Compound>
O=C(O)c1ccc(OC[C@H]2CC[C@]3(CC2)OOC2(O3)C3CC4CC(C3)CC2C4)cc1 (some centres unmarked)

>  <Discrete label>
0 (no)

$$$$
>  <Compound>
C1C2CC3CC1CC(C2)C31OOC2(CCC(NC3CC3)CC2)O1 (centres unmarked) [OZ185, hydrochloride]

>  <Discrete label>
1 (yes)

$$$$
>  <Compound>
CN1CCN(C(=O)C[C@H]2CC[C@]3(CC2)OOC2(O3)C3CC4CC(C3)CC2C4)CC1 (some centres unmarked)

>  <Discrete label>
1 (yes)

$$$$

Ask: Can O=C(OC[C@H]1CC[C@]2(CC1)OOC1(O2)C2CC3CC(C2)CC1C3)N1CCN(c2ccccc2)CC1 (some centres unmarked) be said to have Survival (days) 10 mg/kg sc at or above 8 days?
Result: 0 (no)

Ask: Can CN1CCN(C(=O)N2CCC3(CC2)OOC2(O3)C3CC4CC(C3)CC2C4)CC1 (centres unmarked) be said to have Survival (days) 10 mg/kg sc at or above 8 days?
Result: 1 (yes)

* * *

# Assay remarks: Pharmacokinetics in rats (IV and oral dosing)
# Condition notes: rat, in vivo, iv, 10 mg/kg
Metric name: half-life (h)
One number for each entry, in h.

>  <Compound>
NC(=O)CNC[C@H]1CC[C@]2(CC1)OOC1(O2)C2CC3CC(C2)CC1C3 (some centres unmarked)

>  <half-life, h>
1.57

$$$$

Shifting focus to the compound that follows.
Ask: Item under review: NC[C@H]1CC[C@]2(CC1)OOC1(O2)C2CC3CC(C2)CC1C3 (some centres unmarked) . Reported half-life?
Result: 2.5

* * *

# Test system: ANKA strain of P. berghei
# Assay remarks: Single dose STI in vivo screen in infected mice
# Parameters: species or system Plasmodium berghei
# Condition notes: single 10 mg/kg po in standard suspending vehicle (SSV) on day 1 post-infection; percent reduction in parasitemia on day 3; 10 mg/kg
Metric name: Activity (%) 10 mg/kg SSV po
Numbers only, in %.

The cases that follow already have their Activity (%) 10 mg/kg SSV po on record.
>  <Compound>
c1ncn(C[C@H]2CC[C@]3(CC2)OOC2(O3)C3CC4CC(C3)CC2C4)n1 (some centres unmarked) [OZ235]

>  <Activity (%) 10 mg/kg SSV po>
99.97

$$$$
>  <Compound>
c1cn(C[C@H]2CC[C@]3(CC2)OOC2(O3)C3CC4CC(C3)CC2C4)cn1 (some centres unmarked) [OZ145]

>  <Activity (%) 10 mg/kg SSV po>
99.21

$$$$
>  <Compound>
OC12CC3CC(C1)C1(OOC4(CCC5(CC4)OCCO5)O1)C(C3)C2 (centres unmarked) [OZ152]

>  <Activity (%) 10 mg/kg SSV po>
12

$$$$
>  <Compound>
CC1(C)COC(c2ccc([C@H]3CC[C@]4(CC3)OOC3(O4)C4CC5CC(C4)CC3C5)cc2)=N1 (some centres unmarked) [OZ154]

>  <Activity (%) 10 mg/kg SSV po>
81

$$$$
>  <Compound>
NC[C@H]1CC[C@]2(CC1)OOC1(O2)C2CC3CC(C2)CC1C3 (some centres unmarked) [OZ181]

>  <Activity (%) 10 mg/kg SSV po>
99.91

$$$$

Would you be so kind as to report Activity (%) 10 mg/kg SSV po for each listed record?
1. c1ncn(C[C@H]2CC[C@]3(CC2)OOC2(O3)C3CC4CC(C3)CC2C4)n1 (some centres unmarked) [OZ177]
2. NC[C@H]1CC[C@]2(CC1)OOC1(O2)C2CC3CC(C2)CC1C3 (some centres unmarked) [OZ209]
3. OC12CC3CC(C1)C1(OOC4(CCC5(CC4)OCCO5)O1)C(C3)C2 (centres unmarked) [OZ153]

Result:
1: 99.88; 2: 99.96; 3: 23
